Data provenance: paper PMC10757358

# experimental target: CYP11B1 (Homo sapiens)
# Sequence (P15538 25-503): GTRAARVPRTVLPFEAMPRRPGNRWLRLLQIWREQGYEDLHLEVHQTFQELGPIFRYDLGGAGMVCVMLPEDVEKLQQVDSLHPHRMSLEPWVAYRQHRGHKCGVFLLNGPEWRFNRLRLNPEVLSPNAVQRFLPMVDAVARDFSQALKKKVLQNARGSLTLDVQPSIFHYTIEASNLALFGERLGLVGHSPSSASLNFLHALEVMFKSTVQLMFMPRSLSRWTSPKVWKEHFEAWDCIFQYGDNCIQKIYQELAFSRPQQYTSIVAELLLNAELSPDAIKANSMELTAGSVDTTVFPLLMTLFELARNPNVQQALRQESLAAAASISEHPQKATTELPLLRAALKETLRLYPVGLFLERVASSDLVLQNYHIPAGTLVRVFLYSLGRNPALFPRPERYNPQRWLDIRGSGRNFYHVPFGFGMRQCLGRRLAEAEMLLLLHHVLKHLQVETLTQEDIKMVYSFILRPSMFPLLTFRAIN
experimental readout: pKd
# pKd is unitless: minus log10 of the molar concentration; print number only

Task: Tell me measured pKd for C[C@]12CC[C@H]3[C@@H](CCC4=CC(=O)CC[C@@]43C)[C@@H]1CC[C@@H]2C(=O)CO [DOC, 11-deoxycorticosterone] please.
Result: 6.38
